Tested on: HCT-116 colon
Experiment: NCI tumour cell line growth inhibition, 48 h
reported-property: TGI

[ask] What measured TGI is associated with `Cc1cccc(Nc2cc(Cl)nc(SCC(=O)O)n2)c1C` on HCT-116 colon?
[reply] > 100 µM

[ask] What measured TGI is associated with COc1ccc2c3c1OC1C(OC)(OC)CC4(C=C2)CN(C)CCC314 (centres undefined) on HCT-116 colon?
[reply] > 100 µM

[ask] What measured TGI is associated with `CC1=C(C(=O)Nc2ccccc2)C(c2cc(Cl)cc(Cl)c2)C(C(=O)Nc2ccccc2)=C(C)N1` on HCT-116 colon?
[reply] 21.6 µM

[ask] What measured TGI is associated with `O/N=C\C(=Nc1ccc(Cc2ccc(N=C(/C=N\O)NO)cc2)cc1)NO` on HCT-116 colon?
[reply] > 100 µM

[ask] What measured TGI is associated with N#C/C(=C\c1ccccc1)C(NO)Nc1ccccc1 (centres undefined) on HCT-116 colon?
[reply] > 100 µM

[ask] What measured TGI is associated with CC(CC[C@@]1(O)OC2C[C@H]3[C@@H]4CC[C@H]5CC(OC6OC(CO)C(OC7OC(CO)C(O)C(OC8OCC(O)C(O)C8O)C7OC7OC(CO)C(O)C(O)C7O)C(O)C6O)[C@H](O)CC5(C)[C@H]4CCC3(C)C2[C@@H]1C)COC1OC(CO)C(O)C(O)C1O (some centres undefined) on HCT-116 colon?
[reply] 47.3 µM

[ask] What measured TGI is associated with `O=C(NC1(C(=O)O)CCCC1)c1ccccc1` on HCT-116 colon?
[reply] > 100 µM

[ask] What measured TGI is associated with `CCN(CC)c1ccc(/C=N/NC(=O)CSc2nc3ccccc3c(=O)n2Cc2ccc(S(N)(=O)=O)cc2)c(O)c1` on HCT-116 colon?
[reply] > 100 µM

Let's switch to this compound now.
[ask] What measured TGI is associated with `O=C1C(Cl)=C(NCCF)C(=O)c2ncccc21` on HCT-116 colon?
[reply] 3.51 µM

---

System: SF-295 CNS
Experiment: NCI tumour cell line growth inhibition, 48 h; in the data active = GI50 below about 0.43 µM; inactive = the rest
Output constraint: value belongs to T = active, F = inactive

Solved entries:
[ask] Query: recorded result category for `CN1CCN(CCCOc2cccc3nc(Nc4ccc(F)c(F)c4)ccc23)CC1` in this test
[reply] F

[ask] Query: recorded result category for COc1ccc(-c2nsc3c2NC(=O)CC3c2cccc(Cl)c2)cc1 (stereo unspecified) in this test
[reply] F

[ask] Query: recorded result category for `O=C(CN(/C=C/C(=O)C(F)(F)F)c1ccccc1)c1ccc(Cl)cc1` in this test
[reply] F

[ask] Query: recorded result category for NC(CSC(c1ccccc1)(c1ccccc1)c1ccc(F)cc1)C(=O)O (stereo unspecified) in this test
[reply] T

[ask] Query: recorded result category for `CCOc1ccc(C(C)=O)cc1NC(=O)c1cccc(-c2nnn(CC)n2)c1` in this test
[reply] T

[ask] Query: recorded result category for `O=C(Nc1ccc2c(c1)OCCO2)C(=O)c1c[nH]c2ccccc12` in this test
[reply] F

[ask] Query: recorded result category for O=C1Nc2ccccc2/C1=C/c1cn(CC(O)Cn2cc(/C=C3\C(=O)Nc4ccccc43)c3ccccc32)c2ccccc12 (stereo unspecified) in this test
[reply] F

[ask] Query: recorded result category for `C[C@H](NC(=O)c1c(C(F)F)nn(C)c1Oc1cccc(C(F)(F)F)c1)c1ccc(C(=O)O)cc1` in this test
[reply] F

[ask] Query: recorded result category for COc1ccccc1C1C(C#N)=C(N)Oc2cc(O)ccc21 (stereo unspecified) in this test
[reply] F

[ask] Query: recorded result category for `COc1cc(-c2nccc3cc4c(cc23)OCO4)cc(OC)c1OC` in this test
[reply] F

Query compound follows.
[ask] Query: recorded result category for `C=C(CN1c2ccccc2Sc2ccccc21)c1ccc(C(=O)Nc2ccccc2N)cc1` in this test
[reply] F

---

Tested on: EKVX NSCLC
Assay: NCI tumour cell line growth inhibition, 48 h; in the data active = GI50 below about 0.43 µM; inactive = the rest
Output constraint: value belongs to active, inactive

[ask] Query: recorded result category for `COc1cc(-c2nccc3cc4c(cc23)OCO4)cc(OC)c1OC` in this test
[reply] inactive

[ask] Query: recorded result category for CC12OC(C(=O)C13CCC3)C1C(=O)c3ccc4c(ccc5ccccc54)c3C(=O)C12 (centres undefined) in this test
[reply] inactive

---

Tested on: MALME-3M melanoma
Assay: NCI tumour cell line growth inhibition, 48 h; in the data active means GI50 below about 0.43 µM; inactive means the rest
Output constraint: value belongs to Y (active), N (inactive)

Solved entries:
[ask] Query: recorded result category for `Nc1ccc(-c2ccc3ncc4ccc(=O)n(-c5cccc(C(F)(F)F)c5)c4c3c2)cn1` in this test
[reply] Y

[ask] Query: recorded result category for COc1ccc(-c2nsc3c2NC(=O)CC3c2cccc(Cl)c2)cc1 (stereo not drawn) in this test
[reply] N

[ask] Query: recorded result category for `Nc1nc2c(ccc3ccccc32)s1` in this test
[reply] N

[ask] Query: recorded result category for `NCCOc1ncccc1/C=C1\c2ccccc2-c2ccc([N+](=O)[O-])cc21` in this test
[reply] Y

[ask] Query: recorded result category for COc1cc(NC(C)CCCNC(C)C)c2ncccc2c1OC (stereo not drawn) in this test
[reply] N

---
[ask] Query: recorded result category for `O=C([CH-]C(=O)c1ccccc1)c1ccccc1.O=C([CH-]C(=O)c1ccccc1)c1ccccc1.O=C([CH-]C(=O)c1ccccc1)c1ccccc1.[Cl-].[Zr+4]` in this test
[reply] N

[ask] Query: recorded result category for `O=C(Nc1ccc2c(c1)OCCO2)C(=O)c1c[nH]c2ccccc12` in this test
[reply] N

[ask] Query: recorded result category for `COc1ccc2[nH]c(C(=O)OCc3ccc4cccc(O)c4n3)cc2c1` in this test
[reply] N

---

Test system: COLO 205 colon
Test: NCI tumour cell line growth inhibition, 48 h
reported-property: TGI

[ask] Dear colleague, I am looking for the recorded TGI of the following compound: `O=C(NC(=O)c1cn(CCN2CCN(C(=O)NCCCCCCNC(=O)N3CCN(CCn4cc(C(=O)NC(=O)OCc5ccccc5)c(=O)[nH]c4=O)CC3)CC2)c(=O)[nH]c1=O)OCc1ccccc1`
[reply] > 100 µM

---
[ask] Dear colleague, I am looking for the recorded TGI of the following compound: `Cc1cc(C)nc(NS(=O)(=O)c2ccc(NC(=O)c3cc([N+](=O)[O-])cc([N+](=O)[O-])c3)cc2)n1`
[reply] 45.7 µM

[ask] Dear colleague, I am looking for the recorded TGI of the following compound: `O=C1NC(=Nc2ccccc2)C(=Nc2ccccc2)N1c1ccccc1`
[reply] 28 µM

[ask] Dear colleague, I am looking for the recorded TGI of the following compound: `COc1cc(OC)c(OC)cc1/C=C/c1cc[n+](C)c2ccccc12`
[reply] 19 µM

[ask] Dear colleague, I am looking for the recorded TGI of the following compound: `CN1CCCN2CCN(C)CCCN(CC1)CC2`
[reply] > 100 µM

[ask] Dear colleague, I am looking for the recorded TGI of the following compound: `Nc1nc2c(ccc3ccccc32)s1`
[reply] > 100 µM

[ask] Dear colleague, I am looking for the recorded TGI of the following compound: `O=P1(Cc2ccccc2)c2ccccc2-c2ccccc21`
[reply] 17 µM

---

System: 786-0 renal
Assay: NCI tumour cell line growth inhibition, 48 h
reported-property: TGI (µM)
Reply numerically in µM, unit not repeated.

Some molecules with known TGI results, for comparison:
[ask] Dear colleague, I am looking for the recorded TGI of the following molecule: `COc1ccc2c(c1)O/C(=C\c1cccc(OCC(=O)Nc3nc(C)c(C)s3)c1)C2=O`
[reply] 2.08

[ask] Dear colleague, I am looking for the recorded TGI of the following molecule: CC(CC[C@@]1(O)OC2C[C@H]3[C@@H]4CC[C@H]5CC(OC6OC(CO)C(OC7OC(CO)C(O)C(OC8OCC(O)C(O)C8O)C7OC7OC(CO)C(O)C(O)C7O)C(O)C6O)[C@H](O)CC5(C)[C@H]4CCC3(C)C2[C@@H]1C)COC1OC(CO)C(O)C(O)C1O (stereo not given in full)
[reply] 21.8

[ask] Dear colleague, I am looking for the recorded TGI of the following molecule: `COc1ccc2nc3cccc([N+](=O)[O-])c3c(NCCNCCN(C)C)c2c1`
[reply] 0.164

[ask] Dear colleague, I am looking for the recorded TGI of the following molecule: `COc1ccc2[nH]c(C(=O)OCc3ccc4cccc(O)c4n3)cc2c1`
[reply] 3.31

[ask] Dear colleague, I am looking for the recorded TGI of the following molecule: O=C(C1OC1c1cccc([N+](=O)[O-])c1)C12CC3CC(CC(C3)C1)C2 (stereo not given)
[reply] 7.1

[ask] Dear colleague, I am looking for the recorded TGI of the following molecule: `CCC(=O)Nc1ccc(NCC(=O)Nc2ccc(OC)cc2)cc1`
[reply] 46.4

[ask] Dear colleague, I am looking for the recorded TGI of the following molecule: `CCC[CH2][Sn]([CH2]CCC)([O]C(=O)c1cccc(F)c1F)[O]C(=O)c1cccc(F)c1F`
[reply] 2.22

Let's switch to this molecule now.
[ask] Dear colleague, I am looking for the recorded TGI of the following molecule: `Cc1cc2nnc(C(N)=O)c(N)c2cc1C`
[reply] 68.3
